B1: ANKRD17 (parent)
chain: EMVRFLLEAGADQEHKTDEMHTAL

- Variants of: B1
- ASSAY_REMARKS: protein stability index of a GFP-peptide fusion (GPS, HEK-293T) (PSI 1-6); higher = more stable;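 also: lentivirally expressed fusions sorted by FACS into six bins by GFP to DsRed ratio, PSI derived from sequencing read proportions per bin multiplied by bin number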
- PARTICULARS: c terminus: a fixed tail appended
Listed variants paired with reported protein stability index
REPORTED_PROPERTY: protein stability index

# MUTATION_ID, OBSERVED_VALUE
measured = [
    ("T22F", 1.97),
    ("M20E", 2.94),
    ("E8V", 1.89),
]

The measured values listed here are drawn from the supplement of paper PMC10567573.
